Origin of values: ChEMBL document CHEMBL1147978

Target: Protein O-GlcNAcase (Homo sapiens) (UniProt O60502)
Sequence (O60502 whole entry, looked up): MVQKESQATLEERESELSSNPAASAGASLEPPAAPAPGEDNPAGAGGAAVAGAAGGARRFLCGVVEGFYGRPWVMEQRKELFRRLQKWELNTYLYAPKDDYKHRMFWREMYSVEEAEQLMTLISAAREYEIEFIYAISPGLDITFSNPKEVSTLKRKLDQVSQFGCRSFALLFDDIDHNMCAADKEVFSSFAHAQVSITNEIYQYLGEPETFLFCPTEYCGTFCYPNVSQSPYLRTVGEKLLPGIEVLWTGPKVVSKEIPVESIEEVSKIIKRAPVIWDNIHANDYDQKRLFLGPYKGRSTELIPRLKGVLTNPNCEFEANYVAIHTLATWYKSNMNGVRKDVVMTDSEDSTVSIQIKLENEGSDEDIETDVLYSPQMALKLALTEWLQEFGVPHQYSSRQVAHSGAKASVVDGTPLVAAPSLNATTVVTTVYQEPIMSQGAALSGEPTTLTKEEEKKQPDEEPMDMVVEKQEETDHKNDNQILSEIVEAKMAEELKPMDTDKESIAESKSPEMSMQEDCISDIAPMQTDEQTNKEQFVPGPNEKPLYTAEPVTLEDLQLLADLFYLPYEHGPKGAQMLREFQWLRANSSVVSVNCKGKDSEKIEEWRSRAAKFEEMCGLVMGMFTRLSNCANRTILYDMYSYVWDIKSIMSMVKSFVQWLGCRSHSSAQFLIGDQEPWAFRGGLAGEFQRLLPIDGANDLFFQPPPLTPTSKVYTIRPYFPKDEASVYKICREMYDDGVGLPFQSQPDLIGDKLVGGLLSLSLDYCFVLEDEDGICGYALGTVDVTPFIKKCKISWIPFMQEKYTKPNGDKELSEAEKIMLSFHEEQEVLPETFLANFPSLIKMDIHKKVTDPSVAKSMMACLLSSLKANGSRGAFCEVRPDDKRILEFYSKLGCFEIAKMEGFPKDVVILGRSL
Assay: Inhibition of human family 84 O-GLcNAcase
quantity_measured: Ki (µM)
The figure you give is taken to be in µM; do not add the unit.

Worked examples follow.
CCCCC(=O)N[C@H]1/C(=N/OC(=O)Nc2ccccc2)O[C@H](CO)[C@@H](O)[C@@H]1O 40
CCCC(=O)N[C@H]1/C(=N/OC(=O)Nc2ccccc2)O[C@H](CO)[C@@H](O)[C@@H]1O 40
CCC(=O)N[C@H]1/C(=N/OC(=O)Nc2ccccc2)O[C@H](CO)[C@@H](O)[C@@H]1O 1.2

Alright, here's another molecule for you.
For Protein O-GlcNAcase (Homo sapiens) (UniProt O60502), provide Ki of CC(C)CC(=O)N[C@H]1/C(=N/OC(=O)Nc2ccccc2)O[C@H](CO)[C@@H](O)[C@@H]1O please.
190

* * *

Target: Beta-hexosaminidase (Vibrio cholerae serotype O1 (strain ATCC 39315 / El Tor Inaba N16961)) (UniProt Q9KU37)
Sequence (whole entry): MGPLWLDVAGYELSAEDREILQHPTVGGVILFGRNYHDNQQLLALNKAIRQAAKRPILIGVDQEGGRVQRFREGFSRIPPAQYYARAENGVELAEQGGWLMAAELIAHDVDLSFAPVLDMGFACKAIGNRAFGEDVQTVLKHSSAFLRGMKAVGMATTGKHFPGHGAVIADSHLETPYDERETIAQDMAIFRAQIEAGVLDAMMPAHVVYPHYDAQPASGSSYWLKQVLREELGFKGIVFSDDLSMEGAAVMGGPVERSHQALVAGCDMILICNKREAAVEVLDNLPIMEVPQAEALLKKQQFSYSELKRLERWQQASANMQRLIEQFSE
Assay: Inhibition of Vibrio cholerae NagZ
quantity_measured: log10(Kinact) (log10 of the value in µM)
Answers are given as log10 of Kinact in µM.

CCCCCC(=O)N[C@H]1/C(=N/OC(=O)Nc2ccccc2)O[C@H](CO)[C@@H](O)[C@@H]1O 0.81
CC(=O)N[C@H]1/C(=N/O)O[C@H](CO)[C@@H](O)[C@@H]1O -0.66
CCCC(=O)N[C@H]1/C(=N/OC(=O)Nc2ccccc2)O[C@H](CO)[C@@H](O)[C@@H]1O -0.59
CC(C)CC(=O)N[C@H]1/C(=N/OC(=O)Nc2ccccc2)O[C@H](CO)[C@@H](O)[C@@H]1O 1.18
CCC(CC)C(=O)N[C@H]1/C(=N/OC(=O)Nc2ccccc2)O[C@H](CO)[C@@H](O)[C@@H]1O 0.49

Requested field: log10(Kinact). Item: CC(=O)N[C@H]1/C(=N/OC(=O)Nc2ccccc2)O[C@H](CO)[C@@H](O)[C@@H]1O
-1.32

Requested field: log10(Kinact). Item: CCCCC(=O)N[C@H]1/C(=N/OC(=O)Nc2ccccc2)O[C@H](CO)[C@@H](O)[C@@H]1O
-0.48

Requested field: log10(Kinact). Item: CC(=O)N[C@H]1c2nc(CC(=O)O)cn2[C@H](CO)[C@@H](O)[C@@H]1O
1.18

Requested field: log10(Kinact). Item: CC(C)C(=O)N[C@H]1/C(=N/OC(=O)Nc2ccccc2)O[C@H](CO)[C@@H](O)[C@@H]1O
-0.29

Requested field: log10(Kinact). Item: CCC(=O)N[C@H]1/C(=N/OC(=O)Nc2ccccc2)O[C@H](CO)[C@@H](O)[C@@H]1O
-0.80
